System: NOMO1
Assay Remarks: cell viability relative to DMSO control; higher = less cytotoxic
Conditions: RPMI 5 mM glucose + 10% dialyzed FBS; 48 h; 0.000781 µM
Listed here: items and their measured cell viability.
Value expressed in %; do not type the unit.

[[record]]
molecule_smiles = "C[C@@H]1CCN(C(=O)CC#N)C[C@@H]1N(C)c1ncnc2[nH]ccc12"
system_tested = "NOMO1"
observed_result = 89

[[record]]
molecule_smiles = "CCN1C[C@H](C)[N]2C(=C(O)C3=C2\\C(=N/N(CC4=CC=C(F)C(=C4)Cl)C3=O)C(=O)NC)C1=O"
system_tested = "NOMO1"
observed_result = 106

[[record]]
molecule_smiles = "C[C@]12Cc3cn[nH]c3C[C@@H]1CC[C@@H]1[C@@H]2CC[C@@]2(C)[C@H]1CC[C@]2(C)O"
system_tested = "NOMO1"
observed_result = 102

[[record]]
molecule_smiles = "N#C/C(=C\\c1ccc(O)c(O)c1)C(=O)NCc1ccccc1"
system_tested = "NOMO1"
observed_result = 98

[[record]]
molecule_smiles = "O=C([O-])C[C@H](O)C[C@H](O)/C=C/c1c(C2CC2)nc2ccccc2c1-c1ccc(F)cc1"
system_tested = "NOMO1"
observed_result = 114


Which cell viability value belongs to COc1cc2ncn(-c3cc(OCc4ccccc4[S+](C)(=O)[O-])c(C#N)s3)c2cc1OC ?
107

----------
Test system: P12-Ichikawa
Assay Remarks: cell viability relative to DMSO control; higher = less cytotoxic
Conditions: RPMI 5 mM glucose + 10% FBS; 48 h; 0.569 µM
Listed here: items and their measured cell viability.
Value expressed in %; do not type the unit.

Examples with answers:
[[record]]
compound = "CCOC(=O)N1c2ccc(C(F)(F)F)cc2[C@@H](N(Cc2cc(C(F)(F)F)cc(C(F)(F)F)c2)C(=O)OC)C[C@H]1CC"
display_unit = "%"
observed_result = 127

[[record]]
compound = "C[C@H](CCC(=O)O)[C@H]1CCC2C3C[C@H](O)[C@@H]4C[C@H](O)CC[C@]4(C)C3CC[C@@]21C (some centres undefined)"
display_unit = "%"
observed_result = 105

[[record]]
compound = "O=C1\\C=C/C=C2/[C@H]3CNC[C@H](C3)CN12"
display_unit = "%"
observed_result = 124

[[record]]
compound = "CC(C)(F)C[C@H](N[C@@H](c1ccc(-c2ccc([S+](C)(=O)[O-])cc2)cc1)C(F)(F)F)C(=O)NC1(C#N)CC1"
display_unit = "%"
observed_result = 112

[[record]]
compound = "Cc1nn(C)c(COc2ccc(N3CCN([S+](=O)([O-])N(C)C)CC3)cc2)c1-c1cccc2c(CCCOc3cccc4ccccc34)c(C(=O)O)n(CCN3CCOCC3)c12"
display_unit = "%"
observed_result = 109

[[record]]
compound = "CN(C)c1ccc2nc3ccc(N(C)C)cc3[s+]c2c1"
display_unit = "%"
observed_result = 115

[[record]]
compound = "NC(=O)[C@H]1CCS[C@@H]2C[C@]3(CCCN3C(=O)Cc3ccc(NC(=O)COc4ccc(Cl)cc4Cl)cc3)C(=O)N12"
display_unit = "%"
observed_result = 106

[[record]]
compound = "N\\C1=N\\C2=C(N=C[N]2COCCO)C(=O)N1"
display_unit = "%"
observed_result = 110

[[record]]
compound = "COc1ccc(C(=O)c2c(C)n(CCN3CCOCC3)c3ccccc23)cc1"
display_unit = "%"
observed_result = 101

[[record]]
compound = "COc1cc([C@@H](CC(=O)O)c2ccc(C)c(CN3C[C@@H](C)Oc4ccccc4[S+]3(=O)[O-])c2)cc2nnn(C)c12"
display_unit = "%"
observed_result = 121


Which cell viability value belongs to N[C@H]2CN(CC12CC1)c3c(F)cc4c(c3Cl)[N@@](C=C(C4=O)C(=O)O)C5C[C@H]5F (some centres undefined) ?
83

Which cell viability value belongs to O=S(=O)([O-])CCS.[Na+] ?
136

Which cell viability value belongs to CN1CCN(c2c(F)cc3c(=O)c(C(=O)O)cn(CCF)c3c2F)CC1 ?
107

Which cell viability value belongs to CCN1\C=C(\C(O)=O)C(=O)C2=C1N=C(N3CCNCC3)C(=C2)F ?
79.4

----------
Listed here: items and their measured cell viability.
Test system: P12-Ichikawa
Assay Remarks: cell viability relative to DMSO control; higher = less cytotoxic
Conditions: HPLM + 10% dialyzed FBS; 48 h; 0.00702 µM
Value expressed in %; do not type the unit.

Examples with answers:
[[record]]
compound = "c1ccc2c(Cc3c[nH]c4ccccc34)c[nH]c2c1"
system_tested = "P12-Ichikawa"
measurement_label = "cell viability"
observed_result = 93.7

[[record]]
compound = "CC(=O)N[C@@H]1[C@@H](NC(N)=N)\\C=C(/O[C@H]1[C@H](O)[C@H](O)CO)C(O)=O"
system_tested = "P12-Ichikawa"
measurement_label = "cell viability"
observed_result = 106


Which cell viability value belongs to Cc1nc2cc(C(=O)N3CCC4(CC3)CC(=O)c3c(cnn3C(C)C)C4)ccc2[nH]1 ?
107

Which cell viability value belongs to CCOC(=O)C(C#N)C\1C2=CC(=CC=C2O\C(=C1C(=O)OCC)N)Br (stereo not given) ?
108

----------
Test system: SEM cells
Assay Remarks: cell viability relative to DMSO control; higher = less cytotoxic
Conditions: RPMI 5 mM glucose + 10% dialyzed FBS; 48 h; 0.569 µM
Measurement Label: cell viability (%)
Value expressed in %; do not type the unit.

Examples with answers:
[[record]]
molecule = "CC[C@]12CC[C@H]3[C@@H](CCC/4=C/C(=O)CC[C@H]34)[C@@H]1CC[C@@]2(O)C#C"
measurement_label = "cell viability"
display_unit = "%"
observed_result = 101

[[record]]
molecule = "N\\C1=N\\C2=C(N=C[N]2COCCO)C(=O)N1"
measurement_label = "cell viability"
display_unit = "%"
observed_result = 90.1

[[record]]
molecule = "CO[C@@]12[C@H](COC(N)=O)C/3=C(N1C[C@@H]4N[C@H]24)/C(=O)/C(=C(N)\\C3=O)C"
measurement_label = "cell viability"
display_unit = "%"
observed_result = 116

[[record]]
molecule = "CC[N+](CC)(CC)CCOc1cccc(OCC[N+](CC)(CC)CC)c1OCC[N+](CC)(CC)CC"
measurement_label = "cell viability"
display_unit = "%"
observed_result = 122

[[record]]
molecule = "Cc1ccc([N+](=O)[O-])cc1[S+](=O)([O-])N(C)/N=C/c1cnc2ccc(Br)cn12"
measurement_label = "cell viability"
display_unit = "%"
observed_result = 6.67


Which cell viability value belongs to O=C/1NC(=O)C(=C1C2=CN=C3C=CC=C[N]23)/C4=C[N]5CCN(CC6=C5C4=CC=C6)C(=O)N7CCOCC7 ?
16.3

Which cell viability value belongs to COc1cc(CCc2cc(NC(=O)c3ccc(N4C[C@@H](C)N[C@@H](C)C4)cc3)n[nH]2)cc(OC)c1 ?
96.2

Which cell viability value belongs to CC\12CCC(=O)\C=C1CCC3C2CCC4(C)C3CCC4(O)C#C (configuration not stated) ?
113

Which cell viability value belongs to Cc1nn(C)c(COc2ccc(N3CCN([S+](=O)([O-])N(C)C)CC3)cc2)c1-c1cccc2c(CCCOc3cccc4ccccc34)c(C(=O)O)n(CCN3CCOCC3)c12 ?
123

----------
Listed here: items and their measured cell viability.
Test system: P12-Ichikawa
Assay Remarks: cell viability relative to DMSO control; higher = less cytotoxic
Conditions: RPMI 5 mM glucose + 10% dialyzed FBS; 48 h; 1.71 µM
Value expressed in %; do not type the unit.

[[record]]
molecule = "O=[N+]([O-])c1ncc[nH]1"
measurement_label = "cell viability"
observed_result = 78

[[record]]
molecule = "Cc1cc(OCCC[S+](C)(=O)[O-])cc(C)c1-c1cccc(COc2ccc3c(c2)OC[C@H]3CC(=O)O)c1"
measurement_label = "cell viability"
observed_result = 84.3


Which cell viability value belongs to C[C@@H]1CCN(C(=O)CC#N)C[C@@H]1N(C)c1ncnc2[nH]ccc12 ?
76.4

Which cell viability value belongs to CC(C)N(C[C@H]1O[C@@H](n2cnc3c(N)ncnc32)[C@H](O)[C@@H]1O)[C@H]1C[C@@H](CCc2nc3cc(C(C)(C)C)ccc3[nH]2)C1 ?
99.2

Which cell viability value belongs to N#CC(c1ccnc(NCCc2cccnc2)n1)c1nc2ccccc2s1 (configuration not stated) ?
148

Which cell viability value belongs to COc1cccc2c1C(=O)c1c(O)c3c(c(O)c1C2=O)C[C@@](O)(C(=O)CO)C[C@@H]3O[C@H]1C[C@H](N)[C@H](O[C@H]2CCCCO2)[C@H](C)O1 ?
71.5

Which cell viability value belongs to ClC1=CC=C2N/C3=N/C(=O)CN3CC2=C1Cl ?
118

Which cell viability value belongs to CC(C)(S)[C@@H](N)C(=O)O ?
112

Which cell viability value belongs to O=C(CS(=O)Cc1ccco1)NC/C=C\COc1cc(CN2CCCCC2)ccn1 (configuration not stated) ?
92.3

Which cell viability value belongs to O=C([O-])C[C@H](O)C[C@H](O)/C=C/c1c(C2CC2)nc2ccccc2c1-c1ccc(F)cc1 ?
93.6

Which cell viability value belongs to O=S(=O)([O-])CCS.[Na+] ?
139
